procedureSummary: Plasma UCN-01 pharmacokinetics
Type: in vivo, human
assayContext: human, plasma, intravenous, 45 mg/m^2/day
endpointName: Vd

## Input Can you look up the measured Vd of CN[C@@H]1C[C@H]2O[C@@](C)([C@@H]1OC)n1c3ccccc3c3c4c(c5c6ccccc6n2c5c31)C(=O)N[C@@H]4O [UCN-01, 7-hydroxystaurosporine] for me?
## Output 3 to 18 L

====

procedureSummary: Plasma UCN-01 pharmacokinetics
Assay type: in vivo, human
assayContext: human, plasma, iv, 45 mg/m^2/day
endpointName: AUC(0-inf) (µg·h/mL)
One number for each entry, in µg·h/mL.

## Input Entry under review: CN[C@@H]1C[C@H]2O[C@@](C)([C@@H]1OC)n1c3ccccc3c3c4c(c5c6ccccc6n2c5c31)C(=O)N[C@@H]4O [UCN-01, 7-hydroxystaurosporine] . Reported AUC(0-inf)?
## Output 7260

====

procedureSummary: Plasma UCN-01 pharmacokinetics
Assay type: in vivo, human
assayContext: human, plasma, iv, 45 mg/m^2/day
endpointName: Cmax
// return the numeric value with its unit appended

## Input Field request: Cmax | item: CN[C@@H]1C[C@H]2O[C@@](C)([C@@H]1OC)n1c3ccccc3c3c4c(c5c6ccccc6n2c5c31)C(=O)N[C@@H]4O [UCN-01, 7-hydroxystaurosporine]
## Output 16700 ng/mL
